Reference source: patent US11939331B2

- subject-of-test: wild-type un-phosphorylated FGFR3 protein (Homo sapiens)
- Sequence (P22607 23-806): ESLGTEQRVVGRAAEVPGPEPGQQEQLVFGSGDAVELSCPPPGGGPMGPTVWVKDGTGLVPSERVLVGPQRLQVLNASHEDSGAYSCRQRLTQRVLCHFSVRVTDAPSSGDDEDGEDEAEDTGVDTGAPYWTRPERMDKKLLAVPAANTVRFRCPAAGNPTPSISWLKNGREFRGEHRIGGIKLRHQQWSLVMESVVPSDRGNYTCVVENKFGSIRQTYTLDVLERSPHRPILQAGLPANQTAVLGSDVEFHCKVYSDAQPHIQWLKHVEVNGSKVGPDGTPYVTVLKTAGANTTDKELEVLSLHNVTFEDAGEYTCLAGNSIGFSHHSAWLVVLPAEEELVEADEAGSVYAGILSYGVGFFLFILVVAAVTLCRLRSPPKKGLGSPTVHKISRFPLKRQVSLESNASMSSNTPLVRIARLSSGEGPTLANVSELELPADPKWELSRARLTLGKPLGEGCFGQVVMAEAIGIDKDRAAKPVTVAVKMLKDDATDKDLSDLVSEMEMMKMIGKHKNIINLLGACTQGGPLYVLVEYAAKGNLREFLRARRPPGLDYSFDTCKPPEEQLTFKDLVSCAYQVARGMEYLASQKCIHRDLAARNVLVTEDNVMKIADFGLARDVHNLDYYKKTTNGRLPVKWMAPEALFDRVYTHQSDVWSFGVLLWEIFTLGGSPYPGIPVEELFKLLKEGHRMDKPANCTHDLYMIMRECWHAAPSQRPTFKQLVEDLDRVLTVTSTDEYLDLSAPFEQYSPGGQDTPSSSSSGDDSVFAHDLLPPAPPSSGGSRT
measured-metric: IC50

[[record]]
molecular_string = "NC(=O)c1c(-c2c(Cl)cccc2Cl)nc2c3cc(-c4ccc(N5CCS(=O)(=O)CC5)cc4)cnc3ccn12"
measured_metric = "IC50"
result = "< 0.1 nM"


## Input Can you look up IC50 on wild-type un-phosphorylated FGFR3 protein (Homo sapiens) for CC(C)c1[nH]ncc1-c1cnc2ccn3c(C(N)=O)c(-c4c(Cl)cccc4Cl)nc3c2c1 ?
## Output 1 to 10 nM

## Input Observed IC50 on wild-type un-phosphorylated FGFR3 protein (Homo sapiens) for CC(C)(O)c1cnc2ccn3c(C(N)=O)c(-c4c(Cl)cccc4Cl)nc3c2c1 , please.
## Output 10 to 50 nM

## Input I'm curious: which IC50 was measured for NC(=O)c1c(-c2c(Cl)cccc2Cl)nc2c3cc(-c4cnn(CC(F)(F)F)c4)cnc3ccn12 tested on wild-type un-phosphorylated FGFR3 protein (Homo sapiens)?
## Output < 0.1 nM

## Input Hello, I am looking for reported IC50 with wild-type un-phosphorylated FGFR3 protein (Homo sapiens) for NC(=O)c1c(-c2c(Cl)cccc2Cl)nc2c3cc(-c4cnn(Cc5ncccn5)c4)cnc3ccn12 . Could you help?
## Output < 0.1 nM

## Input Recorded IC50 for CC(C)(O)c1ccc(-c2cnc3ccn4c(C(N)=O)c(-c5c(Cl)cccc5Cl)nc4c3c2)cn1 with wild-type un-phosphorylated FGFR3 protein (Homo sapiens), please?
## Output 0.1 to 1 nM

## Input What value of IC50 on wild-type un-phosphorylated FGFR3 protein (Homo sapiens) does CC(=O)N1CCN(c2ccc(-c3cnc4ccn5c(C(N)=O)c(-c6c(Cl)cccc6Cl)nc5c4c3)cc2)CC1 have?
## Output < 0.1 nM

## Input So what IC50 did NC(=O)c1c(-c2c(Cl)cccc2Cl)nc2c3cc(-c4cnn(CCN5CCOCC5)c4)cnc3ccn12 get with wild-type un-phosphorylated FGFR3 protein (Homo sapiens)?
## Output 0.1 to 1 nM

* * *

Below are pIC50 values recorded for wild-type un-phosphorylated FGFR3 protein (Homo sapiens).
pIC50: −log10 of the molar value.

// known answers, use as guide
[[record]]
molecular_string = "CC(C)(C(N)=O)n1cc(-c2cnc3ccn4c(C(N)=O)c(-c5c(Cl)cccc5Cl)nc4c3c2)cn1"
measured_metric = "pIC50"
result = "9.00 to 10.00"

[[record]]
molecular_string = "NC(=O)c1c(-c2c(Cl)cccc2Cl)nc2c3cc(-c4ccc(C5CCS(=O)(=O)CC5)cc4)cnc3ccn12"
measured_metric = "pIC50"
result = "9.00 to 10.00"

[[record]]
molecular_string = "NC(=O)c1c(-c2c(Cl)cccc2Cl)nc2c3cc(-c4cnn5c4CCC5)cnc3ccn12"
measured_metric = "pIC50"
result = "9.00 to 10.00"


Continue with the next compound.
## Input Notebook entry, wild-type un-phosphorylated FGFR3 protein (Homo sapiens) assay: pIC50 of N#Cc1cccc(Cn2cc(-c3cnc4ccn5c(C(N)=O)c(-c6c(Cl)cccc6Cl)nc5c4c3)cn2)n1 = ?
## Output > 10.00
